Sourced from paper PMC10387993

- Assay method text: LDH cytotoxic activity assay, HeLa
- Format: cell-based
- Test parameters: human, HeLa cells, 50 μg/mL
Attribute measured: cytotoxicity at 24 h, 50 μg/mL (%)

>>> numeric_value("CC(=O)OC[C@H]1O[C@@H](Nc2nc(-c3ccncc3)cc(-c3ccc(C)cc3)n2)[C@H](OC(C)=O)[C@@H](OC(C)=O)[C@@H]1OC(C)=O")
39
>>> numeric_value("CC(=O)OC[C@H]1O[C@@H](Nc2nc(-c3ccccn3)cc(-c3ccccc3C)n2)[C@H](OC(C)=O)[C@@H](OC(C)=O)[C@@H]1OC(C)=O")
40.7
>>> numeric_value("CC(=O)OC[C@H]1O[C@@H](Nc2nc(-c3cccnc3)cc(-c3ccccc3C)n2)[C@H](OC(C)=O)[C@@H](OC(C)=O)[C@@H]1OC(C)=O")
29.8
>>> numeric_value("CC(=O)OC[C@H]1O[C@@H](Nc2nc(-c3ccncc3)cc(-c3ccccc3C)n2)[C@H](OC(C)=O)[C@@H](OC(C)=O)[C@@H]1OC(C)=O")
30.8

###

A collection of compounds and their measured cytotoxicity at 24 h, 100 μg/mL
- Assay method text: LDH cytotoxic activity assay, Hep3B
- Format: cell-based
- Test parameters: human, Hep3B cells, 100 μg/mL
Attribute measured: cytotoxicity at 24 h, 100 μg/mL (%)

>>> numeric_value("Cc1ccc(-c2cc(-c3cccnc3)nc(N[C@@H]3O[C@H](CO)[C@@H](O)[C@H](O)[C@H]3O)n2)cc1 [Compound 8]")
52.9
>>> numeric_value("Cc1ccc(-c2cc(-c3ccccn3)nc(N[C@@H]3O[C@H](CO)[C@@H](O)[C@H](O)[C@H]3O)n2)cc1 [Compound 7]")
44.5
>>> numeric_value("Cc1cccc(-c2cc(-c3cccnc3)nc(N[C@@H]3O[C@H](CO)[C@@H](O)[C@H](O)[C@H]3O)n2)c1 [Compound 5]")
52.5
>>> numeric_value("Cc1cccc(-c2cc(-c3ccncc3)nc(N[C@@H]3O[C@H](CO)[C@@H](O)[C@H](O)[C@H]3O)n2)c1 [Compound 6]")
41.1
>>> numeric_value("Cc1ccc(-c2cc(-c3ccncc3)nc(N[C@@H]3O[C@H](CO)[C@@H](O)[C@H](O)[C@H]3O)n2)cc1 [Compound 9]")
49.4

###

- Tested on: normal FL cells
- Assay method text: cells
- Assay type: cell-based
- Test parameters: FL normal cells, MTT; read-out: IC50
A collection of compounds and their measured IC50
Attribute measured: IC50

>>> result("CC(=O)OC[C@H]1O[C@@H](Nc2nc(-c3cccnc3)cc(-c3cccc(C)c3)n2)[C@H](OC(C)=O)[C@@H](OC(C)=O)[C@@H]1OC(C)=O")
"> 500 mg/L"
>>> result("CC(=O)OC[C@H]1O[C@@H](Nc2nc(-c3ccncc3)cc(-c3ccccc3C)n2)[C@H](OC(C)=O)[C@@H](OC(C)=O)[C@@H]1OC(C)=O")
"> 500 mg/L"
>>> result("Cc1ccccc1-c1cc(-c2ccncc2)nc(N[C@@H]2O[C@H](CO)[C@@H](O)[C@H](O)[C@H]2O)n1")
"> 500 mg/L"

###

A collection of compounds and their measured IC50
- Tested on: Hep3B
- Assay method text: cells
- Assay type: cell-based
- Test parameters: Homo sapiens, MTT, read-out: IC50
Attribute measured: IC50

>>> result("Cc1ccccc1-c1cc(-c2cccnc2)nc(N[C@@H]2O[C@H](CO)[C@@H](O)[C@H](O)[C@H]2O)n1")
"> 500 µg/mL"
>>> result("CC(=O)OC[C@H]1O[C@@H](Nc2nc(-c3ccccn3)cc(-c3ccccc3C)n2)[C@H](OC(C)=O)[C@@H](OC(C)=O)[C@@H]1OC(C)=O")
"> 500 µg/mL"
>>> result("CC(=O)OC[C@H]1O[C@@H](Nc2nc(-c3cccc(C)c3)cc(-c3ccccn3)n2)[C@H](OC(C)=O)[C@@H](OC(C)=O)[C@@H]1OC(C)=O")
"> 500 µg/mL"
